# Tested on: P. falciparum 3D7 growth, pLDH absorbance
# measurement-protocol: blood-stage malaria parasite growth potency – strain 3D7, dose response (AID 2305)
quantity: pIC50
In simple prose, pIC50 is minus the logarithm base ten of a concentration in moles per litre.

Worked cases, answers included:
compound | quantity | measured-value
O=C(N[C@@H](Cc1ccccc1)C(=O)NCc1cccc(C(F)(F)F)c1)c1ccc(O)c(-c2ccc(Cl)c(Cl)c2)c1 | pIC50 | 6.15
N#Cc1ccc(N2CCN(C(=O)c3cccc(-c4noc(C(F)(F)F)n4)c3)CC2)nc1 | pIC50 | 6.66
c1ccc(CNCc2ccc(-c3cccc(-c4nc5ccccc5[nH]4)c3)cc2)cc1 | pIC50 | 6.38
CN1CCc2ccc(NC(=O)Nc3cccc([N+](=O)[O-])c3)cc2C1 | pIC50 | 5.96
Cc1cc(N[C@@H](Cc2ccccc2)C(=O)NCc2cccs2)nc(NCC2CCCCC2)n1 | pIC50 | 6.00

Prompt line: Param readout= pIC50; system= P. falciparum 3D7 growth, pLDH absorbance; entry= CC(C)(C)c1ccc2oc(=O)n(C3CCN(C(=O)c4ccc([N+](=O)[O-])o4)CC3)c2c1 ; returns value.
Response line: 6.09

Prompt line: Entry Cc1cccc(CC2CC(=O)N(c3ccc([N+](=O)[O-])cc3)C2=O)c1 (stereo unspecified) , system P. falciparum 3D7 growth, pLDH absorbance: what pIC50 was measured?
Response line: 6.70

Prompt line: Find the measured pIC50: item CN(C)CCn1cc(C(=O)c2cc(Cl)ccc2O)cc1-c1nc2ccccc2c(=O)[nH]1 , target or system P. falciparum 3D7 growth, pLDH absorbance.
Response line: 6.20

Prompt line: Notebook entry, P. falciparum 3D7 growth, pLDH absorbance assay: pIC50 of COCC(=O)N(Cc1ccccc1-c1ccc(CNCCc2ccccc2)cc1)C1CCN(Cc2ccccc2)CC1 = ?
Response line: 6.05

Prompt line: GET /values?readout=pIC50&system=P. falciparum 3D7 growth, pLDH absorbance&item= Cc1c(C)c2c(c(C)c1O)CC[C@@](C)(C(=O)N1CCC(CN3CCC(c4c[nH]c5ccccc45)CC3)CC1)O2
Response line: 6.18

Prompt line: Provide the documented pIC50 with P. falciparum 3D7 growth, pLDH absorbance as the system for Cc1noc(C)c1-c1ccc2c(Nc3ccccc3N3CCOCC3)c(C(=O)NCc3ccccc3)cnc2c1
Response line: 5.93

---

# System: P. falciparum 3D7 growth, pLDH absorbance
# measurement-protocol: blood-stage malaria parasite growth potency – strain 3D7, dose response (AID 2305)
quantity: IC50 (nM)
Express your answer in nM, writing the number without its unit.

Some compounds with known IC50 results, for comparison:
compound | IC50 [nM]
CCN(CC)C(=NCCCCCCN=C(/N=C(\N)Nc1ccc(Cl)c(Cl)c1)N(CC)CC)/N=C(\N)Nc1ccc(Cl)c(Cl)c1 | 760
COc1ccc(N2CCN(CCc3ccc(NC(=O)c4ccc([N+](=O)[O-])cc4)cc3)CC2)c(OC)c1 | 1170
O=C(/C=C/c1ccc(Cl)c(Cl)c1)NCCCCCN1CCC(NC(=O)Nc2ccc(F)c(F)c2)CC1 | 840
OC(CNc1ccnc(Nc2cccc(CCN3CCOCC3)c2)n1)c1ccccc1 (stereo not given) | 590
O=C(/C=C/c1ccc(Cl)c(Cl)c1)NCC[C@@H]1C[C@H]1CCN1CCC(c2c[nH]c3ccccc23)CC1 | 790
CCCCNC(c1ccc(Cl)cc1)C(O)c1ccc(Cl)cc1 (stereo not given) | 620

Prompt line: Fill blank: measured IC50 of the compound CCc1c[nH]c2c(N3CCCS3(=O)=O)cc(C(=O)N[C@@H](Cc3ccccc3)[C@H](O)CNC3CCCCC3)cc12 is ____.
Response line: 770

Prompt line: # lookup: IC50 of O=C(C=NO)Nc1ccccc1[N+](=O)[O-]
Response line: 790

Prompt line: Any idea what its IC50 is? The compound is CCN(CC)CCN(Cc1ccc(-c2ccc(C(F)(F)F)cc2)cc1)C(=O)Cn1c(SCc2ccc(F)cc2)cc(=O)c2ccccc21
Response line: 750

Prompt line: Endpoint output: IC50 of COc1ccc(NC(=O)C2c3ccccc3C(=O)N(C3CCCC3)C2c2cccs2)c(OC)c1 (stereo not given) . Value?
Response line: 1480

Prompt line: Which IC50 reading was recorded for the compound Fc1ccc2nc(-c3ccc(-c4ccc(CN5CCN(CCN6CCOCC6)CC5)cc4)cc3)[nH]c2c1 ?
Response line: 180

Prompt line: Fill blank: measured IC50 of the compound N[C@@H](CCNCc1ccc(-c2cccnc2)cc1)Cc1ccc(F)c(F)c1 is ____.
Response line: 800

Prompt line: // query IC50 value for entry Cc1ccc(C(NC(=O)c2ccccc2)c2ccc3cccnc3c2O)cc1 (stereo not given)
Response line: 960

Prompt line: Could you share which IC50 value was measured for CC(=O)Nc1ccc(CN2CCC(NC(=O)c3ccc(-c4ccc(N(C)C)cc4)s3)CC2)cc1 ?
Response line: 870

Prompt line: What does the record list as IC50 for Cc1cccc2[nH]c(-c3cccc(-c4ccc(NC(=O)Nc5cccc(C#N)c5)cc4)c3)nc12 ?
Response line: 190

Prompt line: Recorded IC50 of O=[N+]([O-])c1ccc(NC(=NCCOc2ccccc2)Nc2ccccc2Br)c(O)c1 , please.
Response line: 1050

Prompt line: I have this compound here, O=C(/C=C/c1ccc(Cl)c(Cl)c1)NCCCCCN1CCCC(CNC(=O)Nc2ccc(Oc3ccccc3)cc2)C1 (stereo not given) , and I need its recorded IC50.
Response line: 780

Prompt line: Please look up its IC50: CN(C)c1ccc(-c2ccc(C(=O)NC3CCN(Cc4cccc(C(F)(F)F)c4)CC3)s2)cc1
Response line: 990
